# System: Axin2 in SW480 cells
# TEST_PROTOCOL: cells
# Assay type: cell-based
# MEASUREMENT_CONDITIONS: Homo sapiens; SW480 cells, 24 hours; read-out: Axin2 384 IF EC50 IP
Consider the following molecules; for each one, report its pEC50.
Give bare numbers, as −log10 of the molar value.

# MOLECULE, TGT, QUANTITATIVE_RESULT
measured = [
    ("CC1(c2ccccc2)CN([C@H]2CC[C@H](n3c(=O)[nH]c4ccccc43)CC2)C(=O)O1 (stereo partly shown)", "Axin2 in SW480 cells", 5.57),
]

Field: next molecule
Task: // Input: CC1(C)OC(=O)N([C@H]2CC[C@H](n3c(=O)[nH]c4c(F)c(C#N)ccc43)CC2)[C@H]1c1ccccc1 . Output its pEC50 only.
Result: 7.21

====

# TGT: 6×HIS-tankyrase 1 (1091-1325) (Homo sapiens (Human), UniProt O95271)
# Sequence (O95271 1091-1325): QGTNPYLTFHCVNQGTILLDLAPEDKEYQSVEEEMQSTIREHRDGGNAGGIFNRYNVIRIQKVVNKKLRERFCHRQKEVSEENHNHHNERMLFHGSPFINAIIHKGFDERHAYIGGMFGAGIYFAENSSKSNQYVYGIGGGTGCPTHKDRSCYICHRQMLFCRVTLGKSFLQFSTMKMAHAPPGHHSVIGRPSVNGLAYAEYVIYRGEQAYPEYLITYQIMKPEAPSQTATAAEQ
# TEST_PROTOCOL: biochemical
# Format: biochemical
# MEASUREMENT_CONDITIONS: […] enzyme, 400 nM NAD, 60 minutes at room temperature; read-out: TNKS1 IP IC50
MEASURED_ENDPOINT: pIC50
One number for each entry, as −log10 of the molar value.

Recorded results for 3 molecules are shown here.
# MOLECULE, pIC50
measured = [
    ("CC1(C)OC(=O)N([C@H]2CC[C@H](NC(=O)c3csc(Br)n3)CC2)[C@H]1c1ccccc1 [Example 182]", 7.49),
    ("CC1(C)OC(=O)N(c2ccc(-c3nnc4cc(C#N)ccn34)cc2)[C@H]1c1ccccc1 [Example 67]", 5.28),
    ("CC1(C)OC(=O)N(c2ccc(-n3c(=O)[nH]c4ccccc43)nc2)[C@H]1c1ccccc1 [Example 22]", 5.84),
]

Task: Provide pIC50, tested on 6×HIS-tankyrase 1 (1091-1325) (Homo sapiens (Human), UniProt O95271), for Cn1cncc1C(=O)N[C@H]1CC[C@H](N2C(=O)OC(C)(C)[C@@H]2c2ccccc2)CC1 [Example 151] .
Result: 4.78

====

Assignment: determine reported IC50 for the given compounds.
# TGT: 6×HIS-tankyrase 1 (1091-1325) (Homo sapiens (Human))
# TEST_PROTOCOL: biochemical
# Assay type: biochemical
# MEASUREMENT_CONDITIONS: 0.25 nM enzyme, 400 nM NAD, 60 minutes at room temperature; read-out: TNKS1 IP IC50
Give bare numbers, in nM.

Reference set (2 entries):
# COMPOUND, QUANTITATIVE_RESULT
measured = [
    ("CC1(C)OC(=O)N([C@H]2CC[C@H](c3cc(-c4ncccn4)c[nH]c3=O)CC2)C1c1ccccc1 (mixture of isomers)", 31.8),
    ("CC1(C)OC(=O)N(c2ccc(C(=O)Nc3cccc4cccnc34)cc2)C1c1ccncc1 (racemic)", 767),
]

Quick one: give me IC50 for each item below, same order please.
1. CC1(C)OC(=O)N([C@H]2CC[C@@H](c3cc4ccncc4[nH]c3=O)CC2)[C@H]1c1ccccc1
2. CC1(C)OC(=O)N([C@H]2CC[C@H](c3cccnc3)CC2)[C@H]1c1ccccc1
3. COc1cccc(C2N(c3ccc(C(=O)Nc4cccc5cccnc45)cc3)C(=O)OC2(C)C)c1 (racemic)
4. Cc1ccc([C@H]2CC[C@H](N3C(=O)OC(C)(C)[C@@H]3c3ccccc3)CC2)cn1

Result:
1. 1250
2. 1380
3. 152
4. 1380

Please state, for each entry, its recorded IC50.
1. CC1(C)OC(=O)N(c2ccc(C(=O)Nc3cccc4cccnc34)cc2)C1c1ccccn1 (racemic)
2. CC1(C)OC(=O)N([C@H]2CC[C@H](c3cnc4[nH]ccc4c3)CC2)[C@H]1c1ccccc1
3. CC1(C)OC(=O)N([C@H]2CC[C@H](c3cc4ccncc4[nH]c3=O)CC2)[C@H]1c1ccccc1

Result:
1: 310; 2: 218; 3: 11.5

====

Provide the recorded pIC50 for the entries that follow.
# System: total β-catenin in SW480 colorectal cells
# TEST_PROTOCOL: cells
# Assay type: cell-based
# MEASUREMENT_CONDITIONS: Homo sapiens; SW480 cells, 40 to 48 hours, top concentration 10 μM; read-out: SW480-Total β-Catenin IC50 IP
Numbers only, as −log10 of the molar value.

# COMPOUND, pIC50
records = [
    ("Cc1ccccc1[C@@H]1N(c2ccc(C(=O)Nc3cccc4cccnc34)cc2)C(=O)OC1(C)C [Example 41]", 5.70),
    ("CC1(C)OC(=O)N(c2ccc(-c3cc(-c4nccc(C#N)n4)c[nH]c3=O)cc2)[C@H]1c1ccccc1 [Example 120]", 5.63),
    ("O=C(Nc1cccc2cccnc12)c1ccc(N2C(=O)OC3(CCC3)C2c2ccccc2)cc1 (stereo not drawn) [Example 44]", 5.06),
    ("CC1(C)OC(=O)N(c2ccc(C(=O)Nc3cccc4cccnc34)cc2)[C@H]1c1cccnc1 [Example 11]", 5.82),
    ("CC1(C)OC(=O)N(c2ccc(-n3cc(-c4ccccc4)[nH]c3=O)cc2)[C@H]1c1ccccc1 [Example 80]", 5.87),
    ("CC1(C)OC(=O)N([C@H]2CC[C@H](n3c(=O)[nH]c4cc(C#N)ccc43)CC2)[C@H]1c1ccccc1 [Example 47]", 7.27),
    ("CC1(C)OC(=O)N(c2ccc(-c3cc(-c4ncccn4)cnc3F)cc2)[C@H]1c1ccccc1 [Example 3]", 5.76),
    ("CC1(C)OC(=O)N(c2ccc(-n3cc(-c4ncccn4)ccc3=O)cc2)[C@H]1c1ccccc1 [Example 127]", 5.96),
]

Each compound below has a recorded value; state its pIC50.
1. CC1(C)OC(=O)N([C@H]2CC[C@H](n3c(=O)[nH]c4cc(C#N)ccc43)CC2)[C@H]1c1ccc(F)cc1 [Example 61]
2. CC1(C)OC(=O)N([C@H]2CC[C@H](n3c(=O)[nH]c4cnccc43)CC2)[C@@H]1c1ccccc1 [Example 24]
3. CC1(C)OC(=O)N(c2ccc(-c3cc(-c4ncco4)c[nH]c3=O)cc2)[C@H]1c1ccccc1 [Example 116]
4. COc1ccc([C@@H]2N(c3ccc(C(=O)Nc4cccc5cccnc45)cc3)C(=O)OC2(C)C)cc1 [Example 113]

Result:
[6.83, 5.83, 6.04, 5.68]

Task: Supply pIC50 value. Item: CC1(C)OC(=O)N(c2ccc(C(=O)Nc3nccc4cccnc34)cc2)[C@H]1c1ccccc1 [Example 20]
Result: 5.27

====

For each entry below, report its log10 IC50 value.
# Test system: total β-catenin in SW480 colorectal cells
# TEST_PROTOCOL: cells
# Format: cell-based
# MEASUREMENT_CONDITIONS: Homo sapiens; SW480 cells, 40 to 48 hours, top concentration 10 μM; read-out: SW480-Total β-Catenin IC50 IP
log10 IC50, µM

Reference set, count: 5
# COMPOUND, TGT, MEASURED_ENDPOINT, QUANTITATIVE_RESULT
records = [
    ("CC1(C)OC(=O)N([C@H]2CC[C@H](n3c(=O)oc4cccnc43)CC2)[C@H]1c1ccccc1", "total β-catenin in SW480 colorectal cells", "log10 IC50", -0.02),
    ("CC1(C)OC(=O)N([C@H]2CC[C@H](n3c(=O)[nH]c4c(F)c(C#N)ccc43)CC2)[C@H]1c1ccccc1", "total β-catenin in SW480 colorectal cells", "log10 IC50", -1.12),
    ("CC1(C)OC(=O)N([C@H]2CC[C@H](n3c(=O)[nH]c4cncnc43)CC2)[C@H]1c1ccccc1", "total β-catenin in SW480 colorectal cells", "log10 IC50", -0.53),
    ("CC1(C)OC(=O)N([C@H]2CC[C@H](c3cnc(N)c(C#N)c3)CC2)[C@H]1c1ccccc1", "total β-catenin in SW480 colorectal cells", "log10 IC50", -0.33),
    ("COc1cccc(C2N(c3ccc(C(=O)Nc4cccc5cccnc45)cc3)C(=O)OC2(C)C)c1 (racemic)", "total β-catenin in SW480 colorectal cells", "log10 IC50", 0.51),
]

Task: # return recorded log10 IC50 for input Cc1cc(N2C(=O)OC(C)(C)[C@@H]2c2ccccc2)ccc1C(=O)Nc1ccnc2cccnc12
Result: 0.64

====

Exercise: state measured IC50 for each of the compounds provided.
# TGT: 6×HIS-tankyrase 1 (1091-1325) (Homo sapiens (Human), UniProt O95271)
# TEST_PROTOCOL: biochemical
# Format: biochemical
# MEASUREMENT_CONDITIONS: […] enzyme, 400 nM NAD, 60 minutes at room temperature; read-out: TNKS1 IP IC50
Numbers only, in nM.

Some solved entries appear below for comparison.
# COMPOUND, UNIT_LABEL, QUANTITATIVE_RESULT
data = [
    ("CC1(C)OC(=O)N(c2ccc(-c3nnc4ccc(Cl)nn34)cc2)[C@H]1c1ccccc1", "nM", 1980),
    ("CC1(C)OC(=O)N(C2CC=C(c3cnc(N)c(-c4ncccn4)c3)CC2)C1c1ccccc1 (stereo not shown)", "nM", 16),
    ("CC1(C)OC(=O)N(c2ccc(C(=O)Nc3cccc4cccnc34)cc2)[C@@H]1c1ccncc1", "nM", 7910),
    ("CC1(C)OC(=O)N([C@H]2CC[C@H](NC(=O)c3cnc4ccccc4c3)CC2)[C@@H]1c1ccccc1", "nM", 548),
]

Value sought for every listed compound: IC50.
1. CC1(C)OC(=O)N(C2CCN(c3cnc4ccn(-c5ncccn5)c4c3)CC2)[C@H]1c1ccccc1
2. C[C@@H]1OC(=O)N([C@H]2CC[C@H](n3c(=O)[nH]c4cc(C#N)ccc43)CC2)C1c1ccccc1 (stereo partly shown)
3. COc1ccccc1C(=O)N[C@H]1CC[C@H](N2C(=O)OC(C)(C)[C@@H]2c2ccccc2)CC1

Result:
[24.3, 129, 220]
